Just for reference, patent US20180250395A1 is where these values come from.

Target: T1, recombinant human CD47 extracellular domain (ECD), His-tagged, monomer (human, UniProt Q08722 19-141)
T1 construct: C-terminal 6xHis tag; monomeric fraction from Superdex 200; also called human CD47 ECD; CD47-ECD monomer
Assay: ProteOn SPR; mAb captured, ECD monomer as analyte
Provide the recorded pKd for the entries that follow.
The meaning of pKd here: minus log10 of the concentration in molar units.

Can you share its pKd? I mean this binder: C47B233 (antibody, V domains shown, human IgG2sigma/kappa) VH: EVQLVQSGAEVKKPGESLKISCKGSGYSFTNYWIGWVRQMPGKGLEWMGIIYPGDSDTRYSPSFQGQVTISADKSISTAYLQWSSLKASDTAVYYCARVGRFASHQLDYWGQGTLVTVSS VL: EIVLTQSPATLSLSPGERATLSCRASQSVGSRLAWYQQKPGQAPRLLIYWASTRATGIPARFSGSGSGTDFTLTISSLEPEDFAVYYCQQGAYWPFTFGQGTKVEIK
8.41

Note, next up: C47B239 (antibody, V domains shown, human IgG2sigma/kappa) VH: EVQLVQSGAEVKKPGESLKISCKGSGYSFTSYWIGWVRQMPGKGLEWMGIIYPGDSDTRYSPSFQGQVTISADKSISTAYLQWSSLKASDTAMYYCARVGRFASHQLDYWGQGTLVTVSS VL: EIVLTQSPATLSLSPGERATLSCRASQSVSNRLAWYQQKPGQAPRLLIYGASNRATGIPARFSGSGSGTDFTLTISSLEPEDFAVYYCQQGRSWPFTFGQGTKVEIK
8.17
